B1: IRX6 (parent)
chain: YPCLEKPRIWSLAHTATASAVEGA

Variants of: B1
Assay: protein stability index of a GFP-peptide fusion (GPS, HEK-293T) (PSI 1-6); higher = more stable;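 note: lentivirally expressed fusions sorted by FACS into six bins by GFP to DsRed ratio, PSI derived from sequencing read proportions per bin multiplied by bin number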
Details: c terminus: a fixed tail appended
protein stability index reference

Observe how each entry below is paired with its result.
Mutation Notation: A13T
Assay Metric: protein stability index
Test Result: 1.96

Mutation Notation: C3W
Assay Metric: protein stability index
Test Result: 1.68

Mutation Notation: L12N
Assay Metric: protein stability index
Test Result: 1.72

Mutation Notation: E5W
Assay Metric: protein stability index
Test Result: 1.9

Mutation Notation: G23V
Assay Metric: protein stability index
Test Result: 3.24

Mutation Notation: I9R
Assay Metric: protein stability index
Test Result: 2.27

Mutation Notation: C3Y
Assay Metric: protein stability index
Test Result: 1.54

Mutation Notation: H14D
Assay Metric: protein stability index
Test Result: 2.01

Ask: Given the entry `T15H` , report its measured protein stability index.
Result: 3.31

Ask: Given the entry `Y1F` , report its measured protein stability index.
Result: 1.86

Ask: Given the entry `E5C` , report its measured protein stability index.
Result: 3.7

// data source = the supplement of paper PMC10567573
